- study-target: Kappa-type opioid receptor (Cavia porcellus)
- Sequence (P41144 whole entry): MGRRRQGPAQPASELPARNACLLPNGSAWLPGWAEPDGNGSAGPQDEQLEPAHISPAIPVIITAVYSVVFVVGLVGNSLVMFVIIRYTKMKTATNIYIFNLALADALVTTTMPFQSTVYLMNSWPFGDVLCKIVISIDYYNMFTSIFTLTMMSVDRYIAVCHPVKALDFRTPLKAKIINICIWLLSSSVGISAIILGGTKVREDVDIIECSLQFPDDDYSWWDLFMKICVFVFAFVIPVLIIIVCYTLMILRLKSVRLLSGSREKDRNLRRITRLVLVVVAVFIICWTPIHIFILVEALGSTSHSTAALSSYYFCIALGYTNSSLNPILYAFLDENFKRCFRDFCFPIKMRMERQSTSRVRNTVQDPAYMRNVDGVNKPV
- procedure-summary: Potency index, ratio of LP1 Ki to compound Ki for KOR in guinea pig brain membranes
- Format: cell membranes
- condition: Membrane
measured-attribute: Ratio Ki

                                   molecule  recorded_number
0  COC(CN1CC[C@@]2(C)c3cc(O)ccc3C[C@@H]1[C@@H]2C)c1ccccc1 (some centres undefined)                7
1  C[C@H]1[C@H]2Cc3ccc(O)cc3[C@]1(C)CCN2CC(C)(O)c1ccccc1 (some centres undefined)               10
2  C[C@H]1[C@H]2Cc3ccc(O)cc3[C@]1(C)CCN2C[C@@H](O)c1ccccc1               49
3  C[C@H]1[C@H]2Cc3ccc(O)cc3[C@]1(C)CCN2C[C@H](O)c1ccccc1               15

---

- study-target: Delta-type opioid receptor (Rattus norvegicus)
- Sequence (P33533 whole entry): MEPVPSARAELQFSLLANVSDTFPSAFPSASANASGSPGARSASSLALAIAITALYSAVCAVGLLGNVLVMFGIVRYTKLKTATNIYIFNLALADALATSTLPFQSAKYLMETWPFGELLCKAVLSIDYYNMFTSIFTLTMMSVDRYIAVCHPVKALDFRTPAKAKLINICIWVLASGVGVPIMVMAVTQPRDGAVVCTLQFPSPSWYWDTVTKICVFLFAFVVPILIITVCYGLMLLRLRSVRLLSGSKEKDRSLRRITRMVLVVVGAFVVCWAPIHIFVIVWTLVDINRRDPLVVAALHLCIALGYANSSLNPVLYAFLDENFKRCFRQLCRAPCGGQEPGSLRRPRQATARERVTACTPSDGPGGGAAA
- procedure-summary: Displacement of [3H]-DPDPE from DOR in rat brain membranes by liquid scintillation counting analysis
pKi: −log10 of the molar value.
measured-attribute: pKi

>>> df
                                   compound  recorded_number
0  C[C@H]1[C@H]2Cc3ccc(O)cc3[C@]1(C)CCN2C[C@H](O)c1ccccc1             8.02
1  C[C@H]1[C@H]2Cc3ccc(O)cc3[C@]1(C)CCN2C[C@@H](O)c1ccccc1             9.10
2  C[C@H]1[C@H]2Cc3ccc(O)cc3[C@]1(C)CCN2CC(C)(O)c1ccccc1 (some centres undefined)             6.80
3  COC(CN1CC[C@@]2(C)c3cc(O)ccc3C[C@@H]1[C@@H]2C)c1ccccc1 (some centres undefined)             8.18

---

- procedure-summary: Ratio of Ki for KOR in guinea pig brain membranes to Ki for MOR in rat brain membranes
- Format: cell membranes
The entries below come with measured Ratio Ki values attached.
measured-attribute: Ratio Ki

                                   molecule  measured_attribute  recorded_number
0  C[C@H]1[C@H]2Cc3ccc(O)cc3[C@]1(C)CCN2CCC(=O)Nc1ccccc1            Ratio Ki              132
1  C[C@H]1[C@H]2Cc3ccc(O)cc3[C@]1(C)CCN2C[C@@H](O)c1ccccc1            Ratio Ki             4.44
2  COC(CN1CC[C@@]2(C)c3cc(O)ccc3C[C@@H]1[C@@H]2C)c1ccccc1 (stereo not given in full)            Ratio Ki             14.1
3  C[C@H]1[C@H]2Cc3ccc(O)cc3[C@]1(C)CCN2C[C@H](O)c1ccccc1            Ratio Ki             2.95
4  C[C@H]1[C@H]2Cc3ccc(O)cc3[C@]1(C)CCN2CC(C)(O)c1ccccc1 (stereo not given in full)            Ratio Ki             0.17

---

- study-target: mu/kappa opioid receptor (Cavia porcellus, UniProt P41144+P97266)
- procedure-summary: Agonist activity at MOR/KOR in Dunkin-Hartley guinea pig ileum assessed as inhibition of electrically induced contractions after 5 mins
measured-attribute: log10 of IC50 (log10 of the value in nM)

>>> df
                                   compound  recorded_number
0  COC(CN1CC[C@@]2(C)c3cc(O)ccc3C[C@@H]1[C@@H]2C)c1ccccc1 (stereo not given in full)             1.33
1  C[C@H]1[C@H]2Cc3ccc(O)cc3[C@]1(C)CCN2C[C@@H](O)c1ccccc1             1.00
2  C[C@H]1[C@H]2Cc3ccc(O)cc3[C@]1(C)CCN2CC(C)(O)c1ccccc1 (stereo not given in full)             2.29
3  C[C@H]1[C@H]2Cc3ccc(O)cc3[C@]1(C)CCN2CCC(=O)Nc1ccccc1             0.28
4  C[C@H]1[C@H]2Cc3ccc(O)cc3[C@]1(C)CCN2C[C@H](O)c1ccccc1             1.69

---

So I've got Ki readings for Mu-type opioid receptor (Rattus norvegicus, UniProt P33535), take a look.
measured-attribute: Ki (nM)

In [3]: df
Out[3]:
                                   compound  recorded_number
0  C[C@H]1[C@H]2Cc3ccc(O)cc3[C@]1(C)CCN2C[C@@H](O)c1ccccc1              0.5
1  C[C@H]1[C@H]2Cc3ccc(O)cc3[C@]1(C)CCN2CC(C)(O)c1ccccc1 (some centres undefined)               60
2  COC(CN1CC[C@@]2(C)c3cc(O)ccc3C[C@@H]1[C@@H]2C)c1ccccc1 (some centres undefined)             1.08
3  C[C@H]1[C@H]2Cc3ccc(O)cc3[C@]1(C)CCN2C[C@H](O)c1ccccc1             2.47

---

- study-target: Mu-type opioid receptor (Cavia porcellus) (UniProt P97266)
- Sequence (P97266 whole entry): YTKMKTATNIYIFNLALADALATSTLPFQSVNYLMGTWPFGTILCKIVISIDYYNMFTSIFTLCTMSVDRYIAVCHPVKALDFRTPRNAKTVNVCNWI
- procedure-summary: Antagonist activity at MOR in Dunkin-Hartley guinea pig ileum assessed as inhibition of electrically induced contractions after 5 mins by measuring ratio of IC50 for test compounds in presence and absence of NLX
measured-attribute: Ke (nM)

                                   compound  recorded_number
0  C[C@H]1[C@H]2Cc3ccc(O)cc3[C@]1(C)CCN2C[C@@H](O)c1ccccc1               21
1  C[C@H]1[C@H]2Cc3ccc(O)cc3[C@]1(C)CCN2CCC(=O)Nc1ccccc1              2.3
2  COC(CN1CC[C@@]2(C)c3cc(O)ccc3C[C@@H]1[C@@H]2C)c1ccccc1 (some centres undefined)               19
3  C[C@H]1[C@H]2Cc3ccc(O)cc3[C@]1(C)CCN2C[C@H](O)c1ccccc1               35

---

Each entry below carries its recorded Ke.
- study-target: Kappa-type opioid receptor (Cavia porcellus) (UniProt P41144)
- procedure-summary: Antagonist activity at KOR in Dunkin-Hartley guinea pig ileum assessed as inhibition of electrically induced contractions after 5 mins by measuring ratio of IC50 for test compounds in presence and absence of nBNI
measured-attribute: Ke

>>> df
                                   compound                              study_target     result
0  C[C@H]1[C@H]2Cc3ccc(O)cc3[C@]1(C)CCN2C[C@@H](O)c1ccccc1  Kappa-type opioid receptor (Cavia porcellus) (UniProt P41144)       9 nM
1  C[C@H]1[C@H]2Cc3ccc(O)cc3[C@]1(C)CCN2C[C@H](O)c1ccccc1  Kappa-type opioid receptor (Cavia porcellus) (UniProt P41144)      20 nM
2  COC(CN1CC[C@@]2(C)c3cc(O)ccc3C[C@@H]1[C@@H]2C)c1ccccc1 (some centres undefined)  Kappa-type opioid receptor (Cavia porcellus) (UniProt P41144)  > 3000 nM
3  C[C@H]1[C@H]2Cc3ccc(O)cc3[C@]1(C)CCN2CCC(=O)Nc1ccccc1  Kappa-type opioid receptor (Cavia porcellus) (UniProt P41144)    10.8 nM

---

- Organism: Rattus norvegicus
- procedure-summary: Ratio of Ki for DOR in rat brain membranes to Ki for MOR in rat brain membranes
- Format: cell membranes
The following compounds are shown together with reported Ratio Ki values.
measured-attribute: Ratio Ki

>>> print(df.to_string())
                                   compound  result
0  C[C@H]1[C@H]2Cc3ccc(O)cc3[C@]1(C)CCN2C[C@H](O)c1ccccc1    3.88
1  C[C@H]1[C@H]2Cc3ccc(O)cc3[C@]1(C)CCN2CCC(=O)Nc1ccccc1    33.8
2  C[C@H]1[C@H]2Cc3ccc(O)cc3[C@]1(C)CCN2CC(C)(O)c1ccccc1 (stereo not given in full)    2.66
3  COC(CN1CC[C@@]2(C)c3cc(O)ccc3C[C@@H]1[C@@H]2C)c1ccccc1 (stereo not given in full)     6.1
4  C[C@H]1[C@H]2Cc3ccc(O)cc3[C@]1(C)CCN2C[C@@H](O)c1ccccc1     1.6

---

So I've got pKi readings for Kappa-type opioid receptor (Cavia porcellus, UniProt P41144), take a look.
pKi: −log10 of the molar value.
measured-attribute: pKi

>>> df
                                   compound  measured_attribute  recorded_number
0  COC(CN1CC[C@@]2(C)c3cc(O)ccc3C[C@@H]1[C@@H]2C)c1ccccc1 (some centres undefined)                 pKi             7.82
1  C[C@H]1[C@H]2Cc3ccc(O)cc3[C@]1(C)CCN2C[C@H](O)c1ccccc1                 pKi             8.14
2  C[C@H]1[C@H]2Cc3ccc(O)cc3[C@]1(C)CCN2CC(C)(O)c1ccccc1 (some centres undefined)                 pKi             7.98
3  C[C@H]1[C@H]2Cc3ccc(O)cc3[C@]1(C)CCN2C[C@@H](O)c1ccccc1                 pKi             8.65
